- Study Target: human GnRH receptor (Homo sapiens)
- Measurement Notes: IP-One HTRF assay with buserelin (at EC80) stimulation
- Test Settings: CHO cells stably expressing human GnRH receptor, read-out: Potency in IP-One HTRF assay, given as IC50
Observable: pIC50
Scale explanation: pIC50 corresponds to minus log10 of a concentration expressed in moles per litre.

Recorded pIC50 (compound O=C(NCc1ccccc1C(F)(F)F)c1ccc2c(c1)C1(CCS(=O)(=O)CC1)C(C1CC1)N2S(=O)(=O)c1ccc(F)cc1 (single isomer, unassigned) [Example 32.1] ): 7.47

Recorded pIC50 (compound O=C(NCC1CCCC1)c1ccc2c(c1)C1(CCS(=O)(=O)CC1)C(C1CC1)N2S(=O)(=O)c1ccc(F)cc1 (single isomer, unassigned) [Example 38.2] ): 5.16

Recorded pIC50 (compound O=C(NCc1ncccc1C(F)(F)F)c1ccc2c(c1)C1(CCS(=O)(=O)CC1)C(C1CC1)N2S(=O)(=O)c1ccc(OC(F)F)cc1 (stereo not shown) [Example 93] ): 7.28

Recorded pIC50 (compound COc1cccc(S(=O)(=O)N2c3ccc(C(=O)Nc4cccc(S(=O)(=O)N=C(N(C)C)N(C)C)c4)cc3C3(CCS(=O)(=O)CC3)C2C2CC2)c1 (single isomer, unassigned) [Example 62.1] ): 5.19

---

- Study Target: human GnRH receptor (Homo sapiens, UniProt P30968)
- Sequence (P30968 whole entry): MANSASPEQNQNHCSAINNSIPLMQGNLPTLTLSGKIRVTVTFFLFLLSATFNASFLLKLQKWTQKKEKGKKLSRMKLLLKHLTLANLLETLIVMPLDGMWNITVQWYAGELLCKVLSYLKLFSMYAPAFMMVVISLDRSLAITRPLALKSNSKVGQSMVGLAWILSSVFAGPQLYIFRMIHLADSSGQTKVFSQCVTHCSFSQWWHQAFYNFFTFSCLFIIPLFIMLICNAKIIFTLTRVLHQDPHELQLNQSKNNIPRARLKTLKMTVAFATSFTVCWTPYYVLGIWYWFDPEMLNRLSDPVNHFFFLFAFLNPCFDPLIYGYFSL
- Measurement Notes: IP-One HTRF assay with buserelin (at EC80) stimulation
- Test Settings: CHO cells stably expressing human GnRH receptor, read-out: Potency in IP-One HTRF assay, given as IC50
Give measured pIC50 for each item. Keep answers brief.
Scale explanation: pIC50 corresponds to minus log10 of a concentration expressed in moles per litre.

Recorded pIC50 (compound C=CCC1N(S(=O)(=O)c2ccc(F)cc2)c2ccc(C(=O)Nc3cccc(C(=O)O)c3)cc2C12CCS(=O)(=O)CC2 (centres unmarked) ): 7.10

Recorded pIC50 (compound O=C(NCc1ncccc1C(F)(F)F)c1ccc2c(c1)C1(CCS(=O)(=O)CC1)C(C1CC1)N2S(=O)(=O)c1ccc(F)cc1 (single isomer, unassigned) [Example 15.2] ): 7.16

Recorded pIC50 (compound O=C(Nc1ccon1)c1ccc2c(c1)C1(CCS(=O)(=O)CC1)C(C1CC1)N2S(=O)(=O)c1ccc(F)cc1 (centres unmarked) [Example 63] ): 6.49

Recorded pIC50 (compound COc1cccc(S(=O)(=O)N2c3ccc(C(=O)NCc4ccccc4Cl)cc3C3(CCS(=O)(=O)CC3)C2C2CC2)c1 (single isomer, unassigned) [Example 44.2] ): 6.52

Recorded pIC50 (compound O=C(NCc1ccccc1Cl)c1ccc2c(c1)C1(CCS(=O)(=O)CC1)C(C1CC1)N2S(=O)(=O)c1ccc(F)cc1 (single isomer, unassigned) [Example 18.2] ): 5.28

Recorded pIC50 (compound O=C(Nc1cccc(Cl)c1)c1ccc2c(c1)C1(CCS(=O)(=O)CC1)C(C1CC1)N2S(=O)(=O)c1ccc(F)cc1 (centres unmarked) ): 6.58

Recorded pIC50 (compound COc1cccc(S(=O)(=O)N2c3ccc(C(=O)NCc4ccccc4C(F)(F)F)cc3C3(CCS(=O)(=O)CC3)C2C2CC2)c1 (single isomer, unassigned) [Example 40.2] ): 6.20

Recorded pIC50 (compound CC1N(S(=O)(=O)c2ccc(F)cc2)c2ccc(C(=O)NCc3ncc(F)cc3Cl)cc2C12CCS(=O)(=O)CC2 (centres unmarked) ): 6.39

Recorded pIC50 (compound C=CC1N(S(=O)(=O)c2cccc(C(=O)OC)c2)c2ccc(C(=O)NCc3ccccc3Cl)cc2C12CCS(=O)(=O)CC2 (centres unmarked) ): 6.21

Recorded pIC50 (compound COC(=O)c1cccc(NC(=O)c2ccc3c(c2)C2(CCS(=O)(=O)CC2)C(C2CC2)N3S(=O)(=O)c2ccc(F)cc2)c1 (centres unmarked) [Example 34] ): 7.18

Recorded pIC50 (compound N#Cc1ccc(S(=O)(=O)N2c3ccc(C(=O)Nc4cncc(Cl)c4)cc3C3(CCS(=O)(=O)CC3)C2C2CC2)cc1 (centres unmarked) [Example 71] ): 7.28

Recorded pIC50 (compound CN(C)C(=NS(=O)(=O)c1cccc(NC(=O)c2ccc3c(c2)C2(CCS(=O)(=O)CC2)C(C2CC2)N3S(=O)(=O)c2ccc(F)cc2)c1)N(C)C (centres unmarked) [Example 64] ): 8.03

Recorded pIC50 (compound CC1N(S(=O)(=O)c2ccc(F)cc2)c2ccc(C(=O)NCc3ccccc3Cl)cc2C12CCOCC2 (single isomer, unassigned) [Example 2.2] ): 7.08

Recorded pIC50 (compound CC1N(S(=O)(=O)c2ccc(F)cc2)c2ccc(C(=O)NC(C)(C)c3ccc(F)cc3Cl)cc2C12CCS(=O)(=O)CC2 (centres unmarked) ): 5.04

Recorded pIC50 (compound NC(=O)c1cccc(NC(=O)c2ccc3c(c2)C2(CCS(=O)(=O)CC2)C(C2CC2)N3S(=O)(=O)c2ccc(F)cc2)c1 (single isomer, unassigned) [Example 51.2] ): 5.93
